Tested on: HepG2
Test: GSK_TCMDC: Percent inhibition of human HepG2 cell line. Test compounds present at 10uM.
Format: functional
Parameter Inhibition: see the listing below.
API: value field is a number in %; no unit string.

Value of Inhibition reported for the compound `CCc1ccc(C2CCN(CCCCNC(=O)c3ccc(-c4ccc(Cl)cc4)cc3)CC2)c(O)c1` is 48

Value of Inhibition reported for the compound `COc1ccc(-c2cc(-c3nc4cc(C(=O)N5CCOCC5)ccc4[nH]3)c(=O)n(C)c2)cc1OC.O=C(O)C(F)(F)F` is 6

Value of Inhibition reported for the compound C=CC(=O)Nc1ccc(Cl)cc1C(O)c1ccccc1 (centres undefined) is 0

Value of Inhibition reported for the compound `COc1ccc2nccc([C@@H](O)CN3CCC(NCc4ccc5c(c4)sc(=O)n5C)CC3)c2c1.O=C(O)C(=O)O` is 10

Value of Inhibition reported for the compound `O=C(C=Cc1ccc(Br)cc1)N1CCC(CCN2CCC(c3c[nH]c4ccccc34)CC2)CC1` is 47

Value of Inhibition reported for the compound `O=C(Nc1ccc(F)cc1)c1nc2ccccc2nc1Cl` is 44

Value of Inhibition reported for the compound `Cn1cncc1C(=O)Nc1cccc(-c2ccc(-c3nc4cc(C(F)(F)F)ccc4[nH]3)cc2)c1` is 4

Value of Inhibition reported for the compound `COc1ccc(OC)c(NC(=O)CSc2nc(-c3ccccc3Cl)ns2)c1` is 0

Value of Inhibition reported for the compound `OCCn1c(CNCCCNc2nc3ccccc3[nH]2)cc2c(Cl)cc(Cl)cc21` is 29

* * *

System: Plasmodium falciparum
Test: GSK_TCMDC: Inhibition of Plasmodium falciparum Dd2 in whole red blood cells, using parasite LDH activity as an index of growth. Test compounds present at 2uM
Assay type: functional
Property Name: Inhibition (%)
API: value field is a number in %; no unit string.

Cc1cc(N2CCOCC2)nc2ccc(NC(=O)c3ccc(Cl)c([N+](=O)[O-])c3)cc12; 15
Cc1nc(C)c(-c2ccc(Oc3ccc([S+](C)[O-])cc3)cc2)c(O)c1Br (centres undefined); 64
OC(CNc1ccnc(Nc2cccc(Cl)c2)n1)c1cccc(F)c1 (centres undefined); 29

Value of Inhibition reported for the molecule `CC1(C)CCCN(c2ncc(-c3cccc(CNCc4ccccc4O)c3)cn2)C1` is 82

Value of Inhibition reported for the molecule `CCn1c(-c2nonc2N)nc2c(-c3cccc(NC(=O)Nc4cccc(Cl)c4)c3)ncc(OCCCN)c21.O=C(O)C(F)(F)F` is 78

Value of Inhibition reported for the molecule `Cl.O[C@@H](c1cc(C(F)(F)F)nc2c(C(F)(F)F)cccc12)[C@H]1CCCCN1` is 99

Value of Inhibition reported for the molecule `CC(=O)Nc1ncc(C(=O)Nc2cccc(-c3cccc(-c4nc5cc(C(F)(F)F)ccc5[nH]4)c3)c2)s1` is 99

Value of Inhibition reported for the molecule `CC(C)N(Cc1ccccc1)C(=O)CN1C(=O)COc2ccc(S(=O)(=O)N3CCCCCC3)cc21` is 99

Value of Inhibition reported for the molecule `O=C(NCCc1ccccc1)c1cc(-c2cccnc2)cnc1NCC1CC1` is 35

* * *

Test system: Plasmodium falciparum
Test: GSK_TCMDC: Inhibition of Plasmodium falciparum 3D7 in whole red blood cells, using parasite LDH activity as an index of growth. Test compounds present at 2uM
Format: functional
Parameter Inhibition: see the listing below.
API: value field is a number in %; no unit string.

// solved cases for Inhibition follow
CCC(C)c1ccc(NC(=O)Nc2ccc(Cn3ncc(N4CCCNCC4)c(Cl)c3=O)cc2)cc1.O=C(O)C(F)(F)F (stereo not drawn); 83
CNCCNCc1ccc(-c2ccc(-c3nc4ccccc4[nH]3)s2)cc1.O=C(O)C(F)(F)F; 99
CN(c1ccc2c(c1)nc(NC(=O)C1(c3cc(F)ccc3F)CC1)n2C)c1ccnc(Nc2cccc(CS(C)(=O)=O)c2)n1.O=C(O)C(F)(F)F; 89
NC1CCN(c2cnn(Cc3cccc(NC(=O)Nc4ccc(-c5ccccc5)cc4)c3)c(=O)c2Cl)CC1.O=C(O)C(F)(F)F; 89
COc1ccc2ncc(F)c([C@H](O)CN3CCC(NCc4ccc5c(c4)NC(=O)CS5)CC3)c2c1.Cl; 100

Value of Inhibition reported for the compound `COc1ccc(OC)c(Cc2cnc3nc(N)[nH]c(=O)c3c2C)c1` is 98

Value of Inhibition reported for the compound `COc1cc2nc(N3CCC(CNC(=O)c4cccc5cc[nH]c45)CC3)nc(N)c2cc1OC` is 98

Value of Inhibition reported for the compound `Cc1cccc2nc(-c3cccc(-c4ccc(NC(=O)C(=O)c5cccn5C)cc4)c3)[nH]c12` is 100
